The measurements presented in this section are drawn from patent US20190071480A1.

Molecular target: T1, extracellular domain of activin receptor type IIB (ActRIIBecd), biotinylated (Homo sapiens (Human), UniProt Q13705 27-117, amino-biotinylated with amine-PEG3-Biotin)
T1 construct: immobilised on a streptavidin-coated sensor chip; also called biotinylated ActRIIBecd; extracellular domain of ActRIIB
T1 sequence: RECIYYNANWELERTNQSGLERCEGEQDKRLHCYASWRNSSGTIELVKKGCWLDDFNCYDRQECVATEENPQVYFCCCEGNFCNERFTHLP
Test: Mean KD column of Table 5; method not restated (BIAcore as Example 5)
Please respond with reported pKd for every item in the list.
Numbers only, as −log10 of the molar value.

These solved cases illustrate the format of a correct answer.
SEQ ID NO: 308, cysteine pairs C88-C92^a (designed binder, disulfides C88-C92 (intra)) NSKDPKACCVPTELSAPSPLYLDENEKPVLKNYQDMVVHGCGCRGQAKRKGYKRLKSSCKRHPLYVDFKDVGWNDHAVAPPGYHAFYCHGECPFPLADHLNSDNHAIVQTKVNSV: 8.11
SEQ ID NO: 300, cysteine pairs C23-C27^a (designed binder, disulfides C23-C27 (intra)) VDFKDVGWNDHAVAPPGYHAFYCHGECPFPLADHLNSDNHAIVQTKVNSVGQAKRKGYKRLKSSCKRHPLYNSKDPKACCVPTELSAPSPLYLDENEKPVLKNYQDMVVHGCGCR: 8.05
SEQ ID NO: 284, cysteine pairs C88-C92^a (designed binder, disulfides C88-C92 (intra)) NSKIPKACCVPTELSAISMLYLDENEKVVLKNYQDMVVEGCGCRAQAKHKQRKRLKSSCKRHPLYVDFSDVGWNDWIVAPPGYHAFYCHGECPFPLADHLNSTNHAIVQTLVNSV: 8.09

### Prompt // query pKd value for entry SEQ ID NO: 260, cysteine pairs C79-C114^a, C80-C112^a, C44-C48^a (designed binder, disulfides C79-C114 (intra), C80-C112 (intra), C44-C48 (intra)) AQAKHKQRKRLKSSCKRHPLYVDFSDVGWNDWIVAPPGYHAFYCHGECPFPLADHLNSTNHAIVQTLVNSVNSKIPKACCVPTELSAISMLYLDENEKVVLKNYQDMVVEGCGCR
### Response 8.21
